assay: Polydispersity index (PDI) by dynamic light scattering; format: physicochemical; conditions: RSV-F replicon RNA LNP, DLS, 1st immunization
PROPERTY_MEASURED: PDI 1st IM
Answer using only a numeral; do not append any unit.

Past entries and their recorded results:
# COMPOUND, PDI 1st IM
records = [
    ("CCCCC/C=C\\C/C=C\\CCCCCCCC(=O)OCC(COC(=O)CCC(OCCCCCCCC)OCCCCCCCC)COC(=O)C1CCN(C)C1 (stereo not shown)", 0.119),
    ("CCCCC/C=C\\C/C=C\\CCCCCCCC(=O)OCC(COC(=O)CCC(OCCCCCCCC)OCCCCCCCC)COC(=O)OC1CCN(C)CC1 (stereo not shown)", 0.091),
    ("CCCCC/C=C\\C/C=C\\CCCCCCCC(=O)OCC(COC(=O)CCC(OCCCCCCCC)OCCCCCCCC)COC(=O)CCN(C)C (stereo not shown)", 0.147),
    ("CCCCC/C=C\\C/C=C\\CCCCCCCC(=O)OCC(COC(=O)CCC(OCCCCCCCC)OCCCCCCCC)COC(=O)C1(C)CCN(C)CC1 (stereo not shown)", 0.122),
    ("CCCCC/C=C\\C/C=C\\CCCCCCCC(=O)OCC(COC(=O)CCCCCCC/C=C\\C/C=C\\CCCCC)COC(=O)C1(C)CCN(C)C1 (stereo not shown)", 0.122),
    ("CCCCC/C=C\\C/C=C\\CCCCCCCC(=O)OCC(COC(=O)CCC(OCCCCCCCC)OCCCCCCCC)COC(=O)OCC1CCCN(CC)C1 (stereo not shown)", 0.121),
]

Could you now look at the following compound, please?
Query: PDI 1st IM; subject: CCCCC/C=C\C/C=C\CCCCCCCC(=O)OCC(COC(=O)CCC(OCCCCCCCC)OCCCCCCCC)COC(=O)C1CCN(CC2CC2)CC1 (stereo not shown)
0.116

* * *

assay: Measurement of siRNA encapsulation (SYBR Gold fluorescence); assay type: physicochemical; details: FVII siRNA in LNP
PROPERTY_MEASURED: % encapsulation siRNA FVII (%)
A number alone suffices; assume %.

Past entries and their recorded results:
# COMPOUND, PROPERTY_MEASURED, MEAS_VALUE
data = [
    ("CCCCC/C=C\\C/C=C\\CCCCCCCC(=O)OCC(COC(=O)CCCCCCCC(CCCCC)CCCCC)COC(=O)OCCCN(CC)CC (stereo not shown)", "% encapsulation siRNA FVII", 89.1),
    ("CCCCC/C=C\\C/C=C\\CCCCCCCC(=O)OCC(COC(=O)CCCCCCC/C=C\\C/C=C\\CCCCC)COC(=O)C1CCN(CC2CC2)CC1", "% encapsulation siRNA FVII", 86.7),
    ("CCCCC/C=C\\C/C=C\\CCCCCCCC(=O)OCC(COC(=O)CC(CCCCCCCC)CCCCCCCC)COC(=O)OCCCN(CC)CC (stereo not shown)", "% encapsulation siRNA FVII", 86.1),
    ("CCCCC/C=C\\C/C=C\\CCCCCCCC(=O)OCC(COC(=O)CCC(OCCCCCCCC)OCCCCCCCC)COC(=O)OCCCN(CC)CC (stereo not shown)", "% encapsulation siRNA FVII", 88.1),
    ("CCCCC/C=C\\C/C=C\\CCCCCCCC(=O)OCC(COC(=O)OCCN(C)C)COC(=O)C(OCCCCCCC)OCCCCCCC (stereo not shown)", "% encapsulation siRNA FVII", 80.0),
    ("CCCCC/C=C\\C/C=C\\CCCCCCCC(=O)OCC(COC(=O)CCCC(CCCCCCC)CCCCCCC)COC(=O)OCCCN(CC)CC (stereo not shown)", "% encapsulation siRNA FVII", 88.7),
]

Query: % encapsulation siRNA FVII; subject: CCCCC/C=C\C/C=C\CCCCCCCC(=O)OCC(COC(=O)CCCCCCC/C=C\C/C=C\CCCCC)COC(=O)C1(C)CCN(C)C1 (stereo not shown)
85.1

* * *

assay: Measurement of mRNA encapsulation in lipid nanoparticles (Quant-iT Ribogreen); assay type: physicochemical; conditions: Leptin mRNA in LNP
PROPERTY_MEASURED: % encapsulation mRNA Leptin (%)
A number alone suffices; assume %.

Past entries and their recorded results:
# MOLECULE, PROPERTY_MEASURED, MEAS_VALUE
rows = [
    ("CCCC(CCC)COC(CCCCC(=O)OCC(COC(=O)CCCCCCC(=O)OC)COC(=O)C1(C)CCN(C)CC1)OCC(CCC)CCC (stereo not drawn) [Example 72]", "% encapsulation mRNA Leptin", 31.2),
    ("CCCCC/C=C\\C/C=C\\CCCCCCCC(=O)OCC(COC(=O)CCC(OCCCCCCCC)OCCCCCCCC)COC(=O)C1CCN(C)CC1 (stereo not drawn) [Example 41]", "% encapsulation mRNA Leptin", 97.5),
]

Query: % encapsulation mRNA Leptin; subject: CCCCCCCCCCCCC(CCOC(=O)OCC(COC(=O)CCCCCCC(=O)OC)COC(=O)CCCCCCC(=O)OC)OC(=O)OCCCN(C)C (stereo not drawn) [Example 74]
23.0

* * *

assay: Measurement of mRNA encapsulation in lipid nanoparticles (Quant-iT Ribogreen); assay type: physicochemical; conditions: Leptin mRNA in LNP
Binary call on % encapsulation mRNA Leptin with cut-off 60%: strictly below means satisfied, and equality or higher means not satisfied.

# MOLECULE, CLASS_NAME
data = [
    ("CCCCC/C=C\\C/C=C\\CCCCCCCC(=O)OCC(COC(=O)CCC(OCCCCCCCC)OCCCCCCCC)COC(=O)c1ccc(CN(CC)CC)cc1 (stereo not shown)", "satisfied"),
    ("CCCCCCCCOC(CCC(=O)OCC(COC(=O)CCC(OCCCCCCCC)OCCCCCCCC)COC(=O)C1(C)CCN(C)C1)OCCCCCCCC (stereo not shown)", "not satisfied"),
    ("CCCCC/C=C\\C/C=C\\CCCCCCCC(=O)OCC(COC(=O)CCC(OCCCCCCCC)OCCCCCCCC)COC(=O)OCC1CCN(C)CC1 (stereo not shown)", "not satisfied"),
]

Take the molecule CCCCCCCCOC(CCC(=O)OCC(COC(=O)CCCCCCC(=O)OC)COC(=O)C1CCN(C)C1)OCCCCCCCC (stereo not shown) and say whether its % encapsulation mRNA Leptin is less than 60%.
satisfied

Take the molecule CCCCC/C=C\C/C=C\CCCCCCCC(=O)OCC(COC(=O)CCC(OCCCCCCCC)OCCCCCCCC)COC(=O)C1CCCN(C)C1 (stereo not shown) and say whether its % encapsulation mRNA Leptin is less than 60%.
not satisfied

Take the molecule CCCCC/C=C\C/C=C\CCCCCCCC(=O)OCC(COC(=O)CCCCCCCC(CCCCC)CCCCC)COC(=O)OCCCN(CC)CC (stereo not shown) and say whether its % encapsulation mRNA Leptin is less than 60%.
not satisfied

Take the molecule CCCCC/C=C\C/C=C\CCCCCCCC(=O)OCC(COC(=O)CCC(OCCCCCCCC)OCCCCCCCC)COC(=O)[C@H]1CCCN1C (stereo partly shown) and say whether its % encapsulation mRNA Leptin is less than 60%.
satisfied

* * *

assay: Polydispersity index (PDI) by dynamic light scattering; assay type: physicochemical; settings: RSV-F replicon RNA LNP, DLS, 2nd immunization
PROPERTY_MEASURED: PDI 2nd IM
Answer using only a numeral; do not append any unit.

Query: PDI 2nd IM; subject: CCCCC/C=C\C/C=C\CCCCCCCC(=O)OCC(COC(=O)CCC(OCCCCCCCC)OCCCCCCCC)COC(=O)C1(C)CCN(C)CC1 (stereo not shown)
0.118

Query: PDI 2nd IM; subject: CCCCC/C=C\C/C=C\CCCCCCCC(=O)OCC(COC(=O)CCC(OCCCCCCCC)OCCCCCCCC)COC(=O)C1CCN(CC2CC2)CC1 (stereo not shown)
0.11

Query: PDI 2nd IM; subject: CCCCC/C=C\C/C=C\CCCCCCCC(=O)OCC(COC(=O)CCCCCCC/C=C\C/C=C\CCCCC)COC(=O)C1(C)CCN(C)C1 (stereo not shown)
0.11

Query: PDI 2nd IM; subject: CCCCC/C=C\C/C=C\CCCCCCCC(=O)OCC(COC(=O)CCC(OCCCCCCCC)OCCCCCCCC)COC(=O)OCC1CCCN(CC)C1 (stereo not shown)
0.097

Query: PDI 2nd IM; subject: CCCCC/C=C\C/C=C\CCCCCCCC(=O)OCC(COC(=O)CCC(OCCCCCCCC)OCCCCCCCC)COC(=O)OC1CCN(C)CC1 (stereo not shown)
0.075

Query: PDI 2nd IM; subject: CCCCC/C=C\C/C=C\CCCCCCCC(=O)OCC(COC(=O)CCC(OCCCCCCCC)OCCCCCCCC)COC(=O)CCN(C)C (stereo not shown)
0.088

Query: PDI 2nd IM; subject: CCCCC/C=C\C/C=C\CCCCCCCC(=O)OCC(COC(=O)CCC(OCCCCCCCC)OCCCCCCCC)COC(=O)C1CCN(C)C1 (stereo not shown)
0.108

Measured values drawn from patent US10059655B2 for this set.
